# TEST_SYSTEM: T1, human OT7T175 (metastin receptor) (human, UniProt Q969F8 1-398)
# T1 construct: expressed on CHO cells; also called hOT7T175; hOT7T175-expressed CHO cells
# T1 sequence (Q969F8 whole entry L364H): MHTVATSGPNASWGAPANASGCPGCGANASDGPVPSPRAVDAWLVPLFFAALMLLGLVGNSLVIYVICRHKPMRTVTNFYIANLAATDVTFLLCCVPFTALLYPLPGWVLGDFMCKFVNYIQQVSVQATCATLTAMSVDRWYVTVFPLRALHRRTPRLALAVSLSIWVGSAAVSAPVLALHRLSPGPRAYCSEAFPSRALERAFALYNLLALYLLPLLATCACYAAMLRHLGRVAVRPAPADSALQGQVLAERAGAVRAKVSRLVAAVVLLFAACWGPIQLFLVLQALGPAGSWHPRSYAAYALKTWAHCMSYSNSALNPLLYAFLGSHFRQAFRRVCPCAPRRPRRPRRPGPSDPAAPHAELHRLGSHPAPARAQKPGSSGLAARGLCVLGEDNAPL
# ASSAY_REMARKS: competition with Cy-5 metastin (40-54) on hOT7T175-CHO cells, FMAT
Non-standard residues stand in square brackets, D forms with d. No end group written: not given here. Arg(Me) = CNC(=N)NCCC[C@H](N)C(=O)O; 2Pal = N[C@@H](Cc1ccccn1)C(=O)O; azaGly = NNC(=O)O
OUTCOME_MEASURE: IC50 (nM)
Just the number in nM, nothing appended.

The examples below pair each entry with its known result.
NWNSFGLRF-NH2 (also called Compound No. 4) [des(1)-MS10]: 260
Ac-RNSF[azaGly]L[Arg(Me)]F-NH2 (SMILES CNC(=N)NCCC[C@H](NC(=O)[C@H](CC(C)C)NC(=O)NNC(=O)[C@H](Cc1ccccc1)NC(=O)[C@H](CO)NC(=O)[C@H](CC(N)=O)NC(=O)[C@H](CCCNC(=N)N)NC(C)=O)C(=O)N[C@@H](Cc1ccccc1)C(N)=O, also called Compound No. 275) [des(1-2)-Acetyl-[Arg3,AzaGly7,Arg(Me)9]MS10]: 410
[dY]N[2Pal]NSF[azaGly]L[Arg(Me)]F-NH2 (also called Compound No. 285) [[D-Tyr1,Pya(2)3,AzaGly7,Arg(Me)9]MS10]: 40

I have this binder here, [dY][dH]WNSF[azaGly]L[Arg(Me)]F-NH2 (N-terminus assumed; SMILES CNC(=N)NCCC[C@H](NC(=O)[C@H](CC(C)C)NC(=O)NNC(=O)[C@H](Cc1ccccc1)NC(=O)[C@H](CO)NC(=O)[C@H](CC(N)=O)NC(=O)[C@H](Cc1c[nH]c2ccccc12)NC(=O)[C@@H](Cc1c[nH]cn1)NC(=O)[C@H](N)Cc1ccc(O)cc1)C(=O)N[C@@H](Cc1ccccc1)C(N)=O, also called Compound No. 288) [[D-Tyr1,D-His2,AzaGly7,Arg(Me)9]MS10] , and I need its recorded IC50.
0.072
